Target system: SHP2 wild-type phosphatase (recombinantly expressed full-length SHP2, aa 1-593) (Homo sapiens)
Assay summary: In vitro activity on SHP2 wild-type phosphatase (DiFMUP fluorescence)
Condition notes: wild-type full-length SHP2, activated polypeptide IRS1 0.5 nM, DiFMUP 30 μM
Quantity measured: pIC50
Schema: pIC50 number; meaning minus log10 of the concentration expressed in molar units.

IN: Please give the documented pIC50 of Cc1nc(N2CCC3(CC2)CO[C@@H](C)[C@H]3N)n2ccnc2c1-c1c(F)cccc1Cl
OUT: 6.95

IN: Please give the documented pIC50 of Cc1nc(N2CCC3(CC2)CO[C@@H](C)[C@H]3N)n2ccnc2c1-c1cccc(Cl)c1Cl [Example 2]
OUT: 8.96

IN: Please give the documented pIC50 of Nc1nc(N2CCC3(CC2)Cc2ccccc2[C@H]3N)n2ccnc2c1Sc1cccnc1C(F)(F)F
OUT: 8.85

IN: Please give the documented pIC50 of CNc1nccc(Sc2cnc(N3CCC4(CC3)Cc3ncccc3[C@H]4N)n3ccnc23)c1Cl
OUT: 8.70

====

Target system: SHP2 wild-type phosphatase (recombinantly expressed full-length SHP2, aa 1-593) (Homo sapiens, UniProt Q06124)
Sequence (Q06124 1-593): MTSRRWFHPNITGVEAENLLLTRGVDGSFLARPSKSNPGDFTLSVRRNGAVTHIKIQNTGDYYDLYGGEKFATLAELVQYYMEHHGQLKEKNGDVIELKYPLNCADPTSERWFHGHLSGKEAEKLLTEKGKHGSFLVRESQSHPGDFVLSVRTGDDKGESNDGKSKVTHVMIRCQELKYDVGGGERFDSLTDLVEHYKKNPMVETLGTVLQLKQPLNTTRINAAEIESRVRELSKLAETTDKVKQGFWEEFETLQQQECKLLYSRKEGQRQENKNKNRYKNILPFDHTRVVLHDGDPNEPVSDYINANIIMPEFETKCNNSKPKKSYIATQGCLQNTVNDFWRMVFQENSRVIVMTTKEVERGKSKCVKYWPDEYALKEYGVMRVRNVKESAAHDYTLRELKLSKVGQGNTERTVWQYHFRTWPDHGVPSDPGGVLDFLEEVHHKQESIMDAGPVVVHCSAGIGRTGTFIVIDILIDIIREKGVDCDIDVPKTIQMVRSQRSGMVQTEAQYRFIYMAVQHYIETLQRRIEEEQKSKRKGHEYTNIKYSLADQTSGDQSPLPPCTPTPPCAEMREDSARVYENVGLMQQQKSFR
Assay summary: In vitro activity on SHP2 wild-type phosphatase (DiFMUP fluorescence)
Condition notes: wild-type full-length SHP2, activated polypeptide IRS1 0.5 nM, DiFMUP 30 μM
pIC50: −log10 of the molar value.
Think of 7 as a floor: if pIC50 stands on it or above, it is condition met; beneath it, condition not met.

IN: # check: pIC50 of Nc1nc(N2CCC3(CCC[C@H]3N)CC2)n2ccnc2c1Sc1cccnc1C(F)(F)F [Example 23] is greater than or equal to 7
OUT: condition met

IN: # check: pIC50 of CC1(N)CCN(c2ncc(Sc3ccnc(F)c3Cl)c3nncn23)CC1 [Example 19] is greater than or equal to 7
OUT: condition not met

IN: # check: pIC50 of C[C@@H]1OCC2(CCN(c3nc(N)c(-c4cccc(Cl)c4Cl)c4nccn34)CC2)[C@@H]1N [Example 21] is greater than or equal to 7
OUT: condition met

IN: # check: pIC50 of Cc1nc(N2CCC3(CCC[C@H]3N)CC2)n2ccnc2c1-c1ccc(OC(F)F)cc1Cl [Example 7] is greater than or equal to 7
OUT: condition met

IN: # check: pIC50 of Cc1nc(N2CCC3(CC2)CO[C@@H](C)[C@H]3N)n2ccnc2c1-c1cccc(Cl)c1Cl (single isomer, unassigned) [The atropisomer with a RT of 1.495 minutes in Examples 3 and 4] is greater than or equal to 7
OUT: condition met

====

Assay summary: Pharmacokinetics assay in rats
Format: in vivo, SD rats
Condition notes: male, SD, plasma; rat, PO 5 mg/kg vs IV 1 mg/kg; read-out: Bioavailability F
What bioavailability was measured for each of the following?
Give the value in % but do not write % after it.

IN: Please give the documented bioavailability of CNc1nccc(Sc2c(C)nc(N3CCC4(CC3)Cc3ncccc3[C@H]4N)n3ccnc23)c1Cl
OUT: 67.6

IN: Please give the documented bioavailability of C[C@@H]1OCC2(CCN(c3ncc(Sc4cccnc4C(F)(F)F)c4nccn34)CC2)[C@@H]1N
OUT: 80.3

IN: Please give the documented bioavailability of Cc1nc(N2CCC3(CC2)CO[C@@H](C)[C@H]3N)n2ccnc2c1-c1cccc(Cl)c1Cl (single isomer, unassigned) [The atropisomer with a RT of 1.495 minutes in Examples 3 and 4]
OUT: 82.6

IN: Please give the documented bioavailability of CNc1nccc(Sc2cnc(N3CCC4(CC3)Cc3ncccc3[C@H]4N)n3ccnc23)c1Cl
OUT: 75.4

====

Target system: SHP2 wild-type phosphatase (recombinantly expressed full-length SHP2, aa 1-593) (Homo sapiens, UniProt Q06124)
Assay summary: In vitro activity on SHP2 wild-type phosphatase (DiFMUP fluorescence);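 also: enzyme preincubated at room temperature, then DiFMUP reaction run at room temperature and halted with SDS, potency derived from a logistic curve fit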
Condition notes: wild-type full-length SHP2, activated polypeptide IRS1 0.5 nM, DiFMUP 30 μM
What pIC50 was measured for each of the following?
Schema: pIC50 number; meaning minus log10 of the concentration expressed in molar units.

IN: Please give the documented pIC50 of N[C@@H]1c2ccccc2CC12CCN(c1ncc(Sc3cccnc3C(F)(F)F)c3nccn13)CC2
OUT: 8.47

IN: Please give the documented pIC50 of Nc1nc(N2CCC3(CCC[C@H]3N)CC2)n2ccnc2c1Sc1ccnc(F)c1Cl
OUT: 8.68

IN: Please give the documented pIC50 of Cc1nc(N2CCC3(CC2)Cc2ncccc2[C@H]3N)n2ccnc2c1-c1cccc(Cl)c1Cl
OUT: 8.92

IN: Please give the documented pIC50 of CNc1nccc(Sc2c(C)nc(N3CCC4(CC3)Cc3ncccc3[C@H]4N)n3ccnc23)c1Cl
OUT: 8.68

====

Target system: SHP2 wild-type phosphatase (recombinantly expressed full-length SHP2, aa 1-593) (Homo sapiens)
Sequence (Q06124 1-593): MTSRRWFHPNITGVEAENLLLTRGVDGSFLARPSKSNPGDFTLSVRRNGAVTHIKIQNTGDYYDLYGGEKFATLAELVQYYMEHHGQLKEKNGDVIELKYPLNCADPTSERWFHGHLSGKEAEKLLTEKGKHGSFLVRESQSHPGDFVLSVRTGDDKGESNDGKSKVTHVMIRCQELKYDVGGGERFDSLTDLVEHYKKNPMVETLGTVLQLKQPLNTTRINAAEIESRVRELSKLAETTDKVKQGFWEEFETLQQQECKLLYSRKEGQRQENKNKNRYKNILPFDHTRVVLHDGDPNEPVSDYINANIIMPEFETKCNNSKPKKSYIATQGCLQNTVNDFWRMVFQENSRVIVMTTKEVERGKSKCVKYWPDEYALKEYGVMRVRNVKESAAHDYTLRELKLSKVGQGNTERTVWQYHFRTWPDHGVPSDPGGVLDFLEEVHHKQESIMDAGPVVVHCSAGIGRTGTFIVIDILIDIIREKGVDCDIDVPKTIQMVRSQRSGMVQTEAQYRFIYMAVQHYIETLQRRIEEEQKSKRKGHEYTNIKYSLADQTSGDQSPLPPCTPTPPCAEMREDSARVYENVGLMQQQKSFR
Assay summary: In vitro activity on SHP2 wild-type phosphatase (DiFMUP fluorescence)
Condition notes: wild-type full-length SHP2, activated polypeptide IRS1 0.5 nM, DiFMUP 30 μM
Quick rule for you: IC50 under 4 nM gets yes (1), anything else gets no (0).

IN: Given the entry Cc1nc(N2CCC3(CC2)CO[C@@H](C)[C@H]3N)n2ccnc2c1-c1c(F)ccc(Cl)c1Cl [Example 11] , would its reported IC50 be below 4 nM?
OUT: no (0)

IN: Given the entry C[C@@H]1OCC2(CCN(c3ncc(Sc4cccnc4C(F)(F)F)c4nccn34)CC2)[C@@H]1N [Example 17] , would its reported IC50 be below 4 nM?
OUT: no (0)

IN: Given the entry N[C@@H]1CCCC12CCN(c1ncc(Sc3cccnc3C(F)(F)F)c3nccn13)CC2 [Example 16] , would its reported IC50 be below 4 nM?
OUT: no (0)

IN: Given the entry Nc1nccc(Sc2cnc(N3CCC4(CC3)Cc3ccccc3[C@H]4N)n3ccnc23)c1Cl [Example 32] , would its reported IC50 be below 4 nM?
OUT: yes (1)

IN: Given the entry CC1(N)CCN(c2ncc(Sc3ccnc(F)c3Cl)c3nccn23)CC1 [Example 14] , would its reported IC50 be below 4 nM?
OUT: no (0)

IN: Given the entry C[C@@H]1OCC2(CCN(c3nc(C(F)(F)F)c(Sc4cccnc4C(F)(F)F)c4nccn34)CC2)[C@@H]1N [Example 13] , would its reported IC50 be below 4 nM?
OUT: no (0)

IN: Given the entry COc1nccc(Sc2cnc(N3CCC4(CC3)Cc3ncccc3[C@H]4N)n3ccnc23)c1Cl [Example 35] , would its reported IC50 be below 4 nM?
OUT: yes (1)

IN: Given the entry C[C@@H]1OCC2(CCN(c3nc(N)c(Sc4ccnc(F)c4Cl)c4nccn34)CC2)[C@@H]1N [Example 26] , would its reported IC50 be below 4 nM?
OUT: yes (1)

IN: Given the entry Cc1nc(N2CCC3(CCC[C@H]3N)CC2)n2ccnc2c1-c1ccnc(Cl)c1Cl [Example 5] , would its reported IC50 be below 4 nM?
OUT: yes (1)

IN: Given the entry Cc1nc(N2CCC3(CCC[C@H]3N)CC2)n2ccnc2c1-c1cccc(Cl)c1Cl [Example 1] , would its reported IC50 be below 4 nM?
OUT: no (0)

IN: Given the entry Cc1nc(N2CCC3(CC2)CO[C@@H](C)[C@H]3N)n2cnnc2c1-c1cccc(Cl)c1Cl [Example 9] , would its reported IC50 be below 4 nM?
OUT: yes (1)

IN: Given the entry CNc1ncccc1Sc1cnc(N2CCC3(CC2)Cc2ncccc2[C@H]3N)n2ccnc12 [Example 38] , would its reported IC50 be below 4 nM?
OUT: no (0)

IN: Given the entry N[C@@H]1CCCC12CCN(c1ncc(Sc3ccnc(F)c3Cl)c3nccn13)CC2 [Example 15] , would its reported IC50 be below 4 nM?
OUT: no (0)

IN: Given the entry Cc1nc(N2CCC3(CC2)Cc2ncccc2[C@H]3N)n2ccnc2c1Sc1ccnc(N)c1Cl [Example 42] , would its reported IC50 be below 4 nM?
OUT: yes (1)

IN: Given the entry Nc1nccc(Sc2c(N)nc(N3CCC4(CC3)Cc3ccccc3[C@H]4N)n3ccnc23)c1Cl [Example 29] , would its reported IC50 be below 4 nM?
OUT: yes (1)

IN: Given the entry COc1nccc(-c2c(C)nc(N3CCC4(CCC[C@H]4N)CC3)n3ccnc23)c1Cl [Example 6] , would its reported IC50 be below 4 nM?
OUT: no (0)

IN: Given the entry Nc1nc(N2CCC3(CC2)Cc2ncccc2[C@H]3N)n2ccnc2c1Sc1cccnc1C(F)(F)F [Example 28] , would its reported IC50 be below 4 nM?
OUT: yes (1)

IN: Given the entry C[C@@H]1OCC2(CCN(c3ncc(Sc4ccncc4C(F)(F)F)c4nccn34)CC2)[C@@H]1N [Example 18] , would its reported IC50 be below 4 nM?
OUT: no (0)

IN: Given the entry N[C@@H]1c2cccnc2CC12CCN(c1ncc(Sc3cccnc3C(F)(F)F)c3nccn13)CC2 [Example 34] , would its reported IC50 be below 4 nM?
OUT: yes (1)
